- PROCEDURE DETAILS: phase 1 study: CSF distribution and protein binding
- Assay type: in vivo, human
- CONDITION SUMMARY: human, CSF (unbound) / plasma (unbound), oral, 400 mg BID, Cu,CSF:Cu,p ratio, 3 to 4 h postdose day 15, n = 7, mean (%CV)
RESULT TYPE: Kp

COMPOUND	ENDPOINT VALUE
CC(C)(O)CC(=O)NCCn1ccc2ncnc(Nc3ccc(Oc4cccc(C(F)(F)F)c4)c(Cl)c3)c21 [TAK-285]	0.663
